Please go through the items and note down their EC50.
Test system: HSV-1 (KOS)
runDescription: HSV-1 infection ELISA assay
Format: cell-based
reportedConditions: HSV-1 (KOS strain); Table 9; some in duplicate
One number for each entry, in nM.

ISIS 4341: TGGAGACCGGGGTTGGGGAA, phosphorothioate, SEQ ID NO 127 (TGGAGACCGGGGTTGGGGAA; antisense; all phosphorothioate, sugars by position and methylation of C not given here) : 200
ISIS 4348: GGGTTGGAGACCGGGGTTGG, phosphorothioate, SEQ ID NO 125 (GGGTTGGAGACCGGGGTTGG; all phosphorothioate, sugars by position and methylation of C not given here) : 400
ISIS 4342: TTGGAGACCGGGGTTGGGGA, phosphorothioate, SEQ ID NO 128 (TTGGAGACCGGGGTTGGGGA; antisense; all phosphorothioate, sugars by position and methylation of C not given here) : 200
ISIS 4393: GGGGTTGGGGAATGAATCCC, phosphorothioate, SEQ ID NO 124 (GGGGTTGGGGAATGAATCCC; antisense; all phosphorothioate, sugars by position and methylation of C not given here) : 200
ISIS 4346: GAGGTGGGCTTCGGTGGTGA, phosphorothioate, SEQ ID NO 123 (GAGGTGGGCTTCGGTGGTGA; antisense; all phosphorothioate, sugars by position and methylation of C not given here) : 500
ISIS 4112: GACTGGGGCGAGGTAGGGGT, phosphorothioate, SEQ ID NO 132 (GACTGGGGCGAGGTAGGGGT; antisense; all phosphorothioate, sugars by position and methylation of C not given here) : 300

Hi! Can you tell me EC50 for each of these substances?
1. ISIS 4399: GTCCCGACTGGGGCGAGGAT, phosphorothioate, SEQ ID NO 133 (GTCCCGACTGGGGCGAGGAT; antisense; all phosphorothioate, sugars by position and methylation of C not given here)
2. ISIS 4349: GGTTGGAGACCGGGGTTGGG, phosphorothioate, SEQ ID NO 126 (GGTTGGAGACCGGGGTTGGG; antisense; all phosphorothioate, sugars by position and methylation of C not given here)

[250, 250]

----------
Please go through the items and note down their pEC50.
Test system: HSV-1 (KOS)
runDescription: HSV-1 infection ELISA assay
Type: cell-based
reportedConditions: 50% inhibition of HSV replication relative to control infected cells; Table 1
Give bare numbers, as −log10 of the molar value.

Observe how each entry below is paired with its result.
ISIS 5651: TT GGGG TT GGGG TT GGGG TT GGGG, P = S, SEQ ID NO 35 (TTGGGGTTGGGGTTGGGGTTGGGG; all phosphorothioate, sugars by position not given here) : 6.77
ISIS 3196: GGG T GGG T ATA G AAG G GCT CC, P = S, SEQ ID NO 47 (GGGTGGGTATAGAAGGGCTCC; all phosphorothioate, sugars by position and methylation of C not given here) : 6.70

Query (substance): ISIS 5652: TT GGGG TT GGGG TT GGGG TT, P = S, SEQ ID NO 37 (TTGGGGTTGGGGTTGGGGTT; all phosphorothioate, sugars by position not given here) ; field requested: pEC50
6.80

----------
Please go through the items and note down their % Inhibition (1 μM).
subjectOfTest: human type II phospholipase A2 (Homo sapiens, UniProt P14555)
Sequence (P14555 21-144): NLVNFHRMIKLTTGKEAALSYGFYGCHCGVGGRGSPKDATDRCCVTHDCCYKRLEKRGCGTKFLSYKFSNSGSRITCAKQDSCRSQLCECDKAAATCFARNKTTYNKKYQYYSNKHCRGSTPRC
runDescription: Human type II phospholipase A2 enzyme assay (3H-oleic acid labelled E. coli substrate)
Format: biochemical
reportedConditions: 1 μM; Table 4
Strand notation (5' to 3'): a small letter for the sugar, then the base; units joined by * are phosphorothioate-linked, units joined directly phosphodiester-linked; [ ] holds rarer units or linkages, { } end groups; capitals alone tell only the bases. d = 2'-deoxy (DNA)
Give bare numbers, in %.

Observe how each entry below is paired with its result.
ISIS 3479: CCGGAGTACAGGTTCTTTGGT, phosphorothioate, SEQ ID NO 75 : 42.3
ISIS 3481: TTTTTGATTTGCTAATTGCTT, phosphorothioate, SEQ ID NO 77 (dT*dT*dT*dT*dT*dG*dA*dT*dT*dT*dG*dC*dT*dA*dA*dT*dT*dG*dC*dT*dT) : 2.2
ISIS 3184: TTCATGGTAAGAGTTCTTGGG, phosphorothioate, SEQ ID NO 60 (dT*dT*dC*dA*dT*dG*dG*dT*dA*dA*dG*dA*dG*dT*dT*dC*dT*dT*dG*dG*dG) : 25.1
ISIS 3669: GGTGACAAATGCAGATGGACT, phosphorothioate, SEQ ID NO 87 (dG*dG*dT*dG*dA*dC*dA*dA*dA*dT*dG*dC*dA*dG*dA*dT*dG*dG*dA*dC*dT) : 34.7

Then there is this substance:
Query (substance): ISIS 3477: GTGGAGGAGAGCAGTAGAAGG, phosphorothioate, SEQ ID NO 73 (dG*dT*dG*dG*dA*dG*dG*dA*dG*dA*dG*dC*dA*dG*dT*dA*dG*dA*dA*dG*dG) ; field requested: % Inhibition (1 μM)
54.7

----------
Please go through the items and note down their % Inhibition (1 μM).
subjectOfTest: human type II phospholipase A2 (Homo sapiens)
runDescription: Human type II phospholipase A2 enzyme assay (3H-oleic acid labelled E. coli substrate)
Format: biochemical
reportedConditions: 1 μM; Table 4
Strand notation (5' to 3'): a small letter for the sugar, then the base; units joined by * are phosphorothioate-linked, units joined directly phosphodiester-linked; [ ] holds rarer units or linkages, { } end groups; capitals alone tell only the bases. d = 2'-deoxy (DNA)
The reply should read as a number followed by its unit.

ISIS 3671: TAGGAGGGTCTTCATGGTAAG, phosphorothioate, SEQ ID NO 88 (dT*dA*dG*dG*dA*dG*dG*dG*dT*dC*dT*dT*dC*dA*dT*dG*dG*dT*dA*dA*dG) : 49.3%
ISIS 3629: CACCCCTCGTTGCTGAGTCCC, phosphorothioate, SEQ ID NO 79 (dC*dA*dC*dC*dC*dC*dT*dC*dG*dT*dT*dG*dC*dT*dG*dA*dG*dT*dC*dC*dC) : 20.5%
ISIS 3630: TCTCATACCCTCCCTCCCTAC, phosphorothioate, SEQ ID NO 80 (dT*dC*dT*dC*dA*dT*dA*dC*dC*dC*dT*dC*dC*dC*dT*dC*dC*dC*dT*dA*dC) : 17.6%

Hi! Can you tell me % Inhibition (1 μM) for each of these substances?
1. ISIS 4133: AGTGCACGTTGAGTATGTGAG, phosphorothioate, SEQ ID NO 95 (dA*dG*dT*dG*dC*dA*dC*dG*dT*dT*dG*dA*dG*dT*dA*dT*dG*dT*dG*dA*dG)
2. ISIS 3697: ACTCTTACCACAGGTGATTCT, phosphorothioate, SEQ ID NO 93 (dA*dC*dT*dC*dT*dT*dA*dC*dC*dA*dC*dA*dG*dG*dT*dG*dA*dT*dT*dC*dT)

1. 37.3%
2. 39%

----------
Tested on: HSV-1 (KOS)
runDescription: HSV-1 infection ELISA assay
Assay type: cell-based
reportedConditions: Table 12, inosine-substituted
endpoint: EC50 (nM)
Answers are plain numbers, in nM.

Hi! Can you tell me EC50 for each of these substances?
1. ISIS 4925: GTT GGA GAC CGG IGT TGG IG, Inosine #13, 19, SEQ ID NO 137 (GTT GGA GAC CGG IGTTGG IG; inosine at 13, 19, as printed in the source, key not given here)
2. ISIS 5310: GTT GGA GAC CGG GGT TGG GI, Inosine #20, SEQ ID NO 141 (GTT GGA GAC CGG GGTTGG GI; inosine at 20, as printed in the source, key not given here)
3. ISIS 5296: GTT GGA GAC CGG GGT TGG IG, Inosine #19, SEQ ID NO 139 (GTT GGA GAC CGG GGTTGG IG; inosine at 19, as printed in the source, key not given here)

1: 1600; 2: 400; 3: 800

----------
Tested on: HSV-1 (KOS)
runDescription: HSV-1 infection ELISA assay
Type: cell-based
reportedConditions: 50% inhibition of HSV replication relative to control infected cells; Table 1
endpoint: pEC50
Numbers only, as −log10 of the molar value.

Observe how each entry below is paired with its result.
ISIS 4721: CAC GGG GTC G, P = S, SEQ ID NO 32 (CACGGGGTCG; all phosphorothioate, sugars by position and methylation of C not given here) : 6.40
ISIS 5676: GGGG TT GGGG TT GGGG, P = S, SEQ ID NO 39 (GGGGTTGGGGTTGGGG; all phosphorothioate, sugars by position not given here) : 6.64
ISIS 4897: CAC GGG GTC GCC GAT, P = S, SEQ ID NO 31 (CACGGGGTCGCCGAT; all phosphorothioate, sugars by position and methylation of C not given here) : 6.89

Then there is this substance:
Query (substance): ISIS 5674: TT GGGG TT GGGG, P = S, SEQ ID NO 41 (TTGGGGTTGGGG; all phosphorothioate, sugars by position not given here) ; field requested: pEC50
5.82

These measurements were taken from patent US20070015723A1.
